Tested on: SN12C
Assay Notes: NCI tumour cell line growth inhibition, 48 h
Calls of active or inactive are those of the source. Cut-off read from the data, not from the text of the source: active = GI50 up to about 1.1 µM and inactive = higher.
Hello, when you answer, please use one of the following outcomes: YES (active), NO (inactive)

Example entries and their recorded answers appear below.
CCCCCNC(=O)c1cc2cc(CCl)ccc2oc1=O ... NO
CCN(CC)CCNc1ccc2ncn3c4c(OC)cccc4c(=O)c1c23 ... NO
CC1OC(OCC2COC(O)(Oc3c(-c4ccc(O)c(O)c4)oc4cc(O)cc(O)c4c3=O)C(O)C2O)C(O)C(O)C1O (stereo not given) ... NO
CCOC(=O)C1=C(C)NC2=C(C(=O)N(c3ccccc3)C2c2ccccc2)C1c1ccccc1 (stereo not given) ... NO

Dear colleague, could you share the recorded outcome for `CN(C)C(n1cc2c(c1)-c1ccc(Cl)cc1C(c1ccccc1F)=NC2)n1cc2c(c1)-c1ccc(Cl)cc1C(c1ccccc1F)=NC2` when you have a moment?
NO

Could you check what this test reported for N#CC(Cl)CS(=O)(=O)c1ccccc1 (stereo not given) ?
NO

State the result this test recorded for `Cc1ccnc2nc(-c3cccc(Cl)c3)cc(O)c12` .
YES

* * *

For each of the compounds below, state its GI50.
Test system: SK-MEL-5
Assay Notes: NCI tumour cell line growth inhibition, 48 h
The source made the active and inactive calls. No stated cut-off is given here; in the data, active = GI50 up to about 1.1 µM and inactive = higher.

Please give GI50 for each item listed below.
1. CC(NCc1c(O)ccc2c(-c3ccccc3)cc(=O)oc12)C(=O)O (configuration not stated)
2. Cc1ccc(NC(=O)c2ccc(OP(=O)(O)Nc3ccc(C)cc3)cc2)cc1
3. O=C(O)C1CC(c2ccc(F)cc2)=Nc2ccc(F)cc2S1 (configuration not stated)
4. NCC1CCCCC1.O=C(O)NCC1CCCCC1
5. Nc1nc(O)c2c(ncn2CC(O)CO)n1 (configuration not stated)
6. CCOC(=O)C(C(=O)OCC)C1C=CCC2c3ccccc3COCC21 (configuration not stated)
7. Cc1ccc(NC(=O)/C(Cl)=C(/Cl)C(=O)O)cc1

["> 100 µM (inactive)", "> 100 µM (inactive)", "> 100 µM (inactive)", "15.3 µM (inactive)", "> 100 µM (inactive)", "19.1 µM (inactive)", "28.4 µM (inactive)"]

Hey, quick one: what's GI50 for each of these?
1. COC(=O)C1=C(C(=O)OC)N(c2ccc(OC)cc2[N+](=O)[O-])C(c2ccc(C)cc2)=CC1c1ccc(OC)cc1OC (configuration not stated)
2. Clc1ccc(-c2nnc(-c3nn(-c4ccccc4)c4nc5ccccc5nc34)o2)cc1
3. CC(C)(C)OC(=O)NCC(=O)NC1c2ccsc2/C(=N/O)[C@H]1O (some centres not stated)

["26.2 µM (inactive)", "12.9 µM (inactive)", "> 100 µM (inactive)"]

For every listed record, write down its GI50.
1. Cc1c2c(c(C)n1-c1ccccc1)C(=O)N(CCN1CCN(c3cccc(C(F)(F)F)c3)CC1)C2=O
2. NNC(=S)N1CCN(C(=S)NN)CC1
3. CCCN1CC=C(c2cc(C(=O)OCC)[nH]c2-c2cc(C)no2)C1=O
4. O=C(NN1C(=O)C(Cl)C1c1ccccc1Cl)c1ccccc1O (configuration not stated)
5. COC(=O)[C@H]1ON2O[C@@H](O[C@H]3CCCC[C@@H]3C(C)(C)c3ccccc3)C[C@@H]3CC[C@H]1[C@@]32C
6. C=CCN1CC2CN=NC2(C#N)C1 (configuration not stated)
7. O=C1C=CC2(O[C@H](c3ccccc3)[C@@H](c3ccccc3)O2)C(SC(=O)c2ccccc2)C1 (some centres not stated)
8. CCOC(=O)C1CCC/C1=N\NC(=N)N.Cc1cc(O)c(C(C)C)cc1S(=O)(=O)O (configuration not stated)

["5.25 µM (inactive)", "> 100 µM (inactive)", "> 100 µM (inactive)", "> 100 µM (inactive)", "> 100 µM (inactive)", "> 100 µM (inactive)", "1.47 µM (inactive)", "> 100 µM (inactive)"]
